Provenance of the data: patent US20250250357A1

# system_under_test: T1, human MSLN-FL-his protein (human, UniProt Q13421 296-580)
# T1 construct: Made in HEK293E cells, purified on nickel column; also called hMSLN-FL-his; human MSLN full-length protein; not shown: His tag
# method: ELISA, coated antigen, antibody 200 nM
property_name: OD450
Just the number, please, no unit after it.

## Task Requested read-out: OD450. Entry: S009-F7.23.19 chimeric antibody (antibody, human IgG1, kappa, V domains shown, Human-murine chimeric antibody, human IgG1/kappa constant regions) VH: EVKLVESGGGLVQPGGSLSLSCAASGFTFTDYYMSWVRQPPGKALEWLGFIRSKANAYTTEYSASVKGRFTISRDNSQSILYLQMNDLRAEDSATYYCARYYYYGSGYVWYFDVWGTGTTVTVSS VL: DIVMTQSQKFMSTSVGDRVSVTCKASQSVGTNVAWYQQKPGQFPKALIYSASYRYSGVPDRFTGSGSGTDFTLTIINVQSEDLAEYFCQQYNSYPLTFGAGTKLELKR
## Result 2.5

## Task Requested read-out: OD450. Entry: S009-F7.53.2 chimeric antibody (antibody, human IgG1, kappa, V domains shown, Human-murine chimeric antibody, human IgG1/kappa constant regions) VH: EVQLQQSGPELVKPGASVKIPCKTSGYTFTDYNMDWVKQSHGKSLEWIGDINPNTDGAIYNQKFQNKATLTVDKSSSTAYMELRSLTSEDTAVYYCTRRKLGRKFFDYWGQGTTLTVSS VL: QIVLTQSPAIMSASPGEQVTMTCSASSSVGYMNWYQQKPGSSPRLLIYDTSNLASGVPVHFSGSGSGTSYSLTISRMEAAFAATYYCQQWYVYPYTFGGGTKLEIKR
## Result 2.6
